Overview of recorded protein stability index for various variants
B1: SMG5 (parent)
chain: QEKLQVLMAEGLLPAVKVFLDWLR

Variants of: B1
assayText: protein stability index of a GFP-peptide fusion (GPS, HEK-293T) (PSI 1-6); higher = more stable;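 note: lentivirally expressed fusions sorted by FACS into six bins by GFP to DsRed ratio, PSI derived from sequencing read proportions per bin multiplied by bin number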
conditionSet: c terminus: a fixed tail appended
metricName: protein stability index

V6I : 1.5
K3N : 1.91
L20C : 3.11
L13V : 2.04
M8G : 2.85
K17L : 2.03
L20K : 1.41
E2D : 2.26
G11E : 1.6
K3S : 1.79
K3W : 1.48
K17M : 1.79
D21L : 2.2
G11F : 1.84
L20Y : 1.54
L4T : 3.18
F19H : 1.31
A15G : 2.45
L20W : 2.29
Q5A : 2
G11D : 1.64
L13Y : 3.17
V16C : 1.98
L12Y : 2.32
L20A : 3.26
L7W : 3.24
V6N : 3.16
W22H : 2.73
F19L : 1.9
V16G : 1.15
V16K : 2.04
G11L : 1.6
